Target: recombinant αIIbβ3 headpiece
Assay: fluorescence polarisation; saturation: FITC-dodecapeptide probe at 3 nM, increasing concentration of αIIbβ3 headpiece; one-site specific binding fit; background with 10 μM tirofiban subtracted; 20 mM HEPES, pH 7.5, 150 mM NaCl, 2 mM MnCl2, 0.1 mM CaCl2
No end group written: not given here. *: point of attachment. FITC = O=C1OC2(c3ccc(O)cc3Oc3cc(O)ccc32)c2ccc(NC(=S)*)cc21; Ahx = NCCCCCC(=O)O
Property: Kd
Answer format: number, then unit.

Query :: Please indicate Kd recorded for {FITC-Ahx}-HHLGGAKQAGDV [FITC-aminohexanoyl-…]
Result :: 0.64 µM
